# credit: paper PMC9396645

Field: Ki. Provide a value for each of the compounds that follow.
target: PSMA (Homo sapiens)
Sequence (Q04609 whole entry): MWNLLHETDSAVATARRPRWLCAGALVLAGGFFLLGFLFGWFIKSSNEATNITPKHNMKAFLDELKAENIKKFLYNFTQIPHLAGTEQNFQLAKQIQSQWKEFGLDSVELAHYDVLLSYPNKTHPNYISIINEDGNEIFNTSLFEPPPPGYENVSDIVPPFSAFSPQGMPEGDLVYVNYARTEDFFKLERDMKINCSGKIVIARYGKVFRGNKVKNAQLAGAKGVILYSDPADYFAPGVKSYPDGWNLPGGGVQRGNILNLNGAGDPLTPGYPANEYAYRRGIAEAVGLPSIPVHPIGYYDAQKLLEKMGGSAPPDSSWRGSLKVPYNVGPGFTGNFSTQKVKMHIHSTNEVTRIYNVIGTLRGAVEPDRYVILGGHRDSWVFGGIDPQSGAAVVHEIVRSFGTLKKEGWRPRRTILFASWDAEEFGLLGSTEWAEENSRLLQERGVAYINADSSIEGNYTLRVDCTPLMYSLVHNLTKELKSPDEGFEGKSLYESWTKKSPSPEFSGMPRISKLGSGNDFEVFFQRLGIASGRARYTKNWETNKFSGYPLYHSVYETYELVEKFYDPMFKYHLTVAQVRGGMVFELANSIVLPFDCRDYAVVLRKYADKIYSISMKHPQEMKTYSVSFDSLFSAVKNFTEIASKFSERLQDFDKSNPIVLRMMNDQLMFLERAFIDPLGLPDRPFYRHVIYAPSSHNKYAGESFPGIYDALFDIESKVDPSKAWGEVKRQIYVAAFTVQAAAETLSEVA
Numbers only, in nM.

Would you please look over these solved cases?
compound="O=C(O)CCC(NC(=O)NC(CCCCNC(=O)C(Cc1ccc2ccccc2c1)NC(=O)C1CCC(CNC(=O)c2ccc(CN3CCN(CC(=O)O)CCN(CC(=O)O)CCN(CC(=O)O)CC3)cc2)CC1)C(=O)O)C(=O)O (stereo not shown) [CA028]" assay_system="PSMA (Homo sapiens)" measured_parameter=Ki result_value=15.2
compound="O=C(O)CCC(NC(=O)NC(CCCCNC(=O)C(Cc1ccc2ccccc2c1)NC(=O)C1CCC(CNC(=S)Nc2ccc(CC3CN(CC(=O)O)CCN(CC(=O)O)CCN(CC(=O)O)CCN3CC(=O)O)cc2)CC1)C(=O)O)C(=O)O (stereo not shown) [CA030]" assay_system="PSMA (Homo sapiens)" measured_parameter=Ki result_value=4.79
compound="O=C(O)CCC(NC(=O)NC(CCCCNC(=O)c1ccc(CN2CCN(CC(=O)O)CCN(CC(=O)O)CCN(CC(=O)O)CC2)cc1)C(=O)O)C(=O)O (stereo not shown) [CA027]" assay_system="PSMA (Homo sapiens)" measured_parameter=Ki result_value=33.8

// moving on: another record for Ki
Given item O=C(O)CCC(NC(=O)NC(CCCCNC(=O)C(Cc1ccc2ccccc2c1)NC(=O)C1CCC(CNC(=S)Nc2ccc(CNC(=O)CCC(C(=O)O)N3CCN(CC(=O)O)CCN(CC(=O)O)CCN(CC(=O)O)CC3)cc2)CC1)C(=O)O)C(=O)O (stereo not shown) [CA029] , the value recorded as its Ki is 11
